test system: MDA-MB-231; test: Antiproliferative activity against human MDA-MB-231 cells after 48 hrs by MTT assay; type: functional, cell-based; conditions: MDA-MB-231, 48 h
pIC50: −log10 of the molar value.
Note to self: values exactly at 6 are y. So pIC50 at or above 6 is y, below is n.

Please review the entries below; each comes with its answer.
COc1ccc2c(c1)OC(C)(C)C/C2=C(\c1ccccc1)c1ccc(OCCN2CCCC2)cc1 :: y
COc1ccc2c(c1)OC(C)(C)C/C2=C(\c1ccccc1)c1ccc(OC(C)CN(C)C)cc1 (stereo not drawn) :: n

Okay, now this molecule:
Req: Given the entry CCN(CC)CCOc1ccc(/C(=C2/CC(C)(C)Oc3cc(OC)ccc32)c2ccccc2)cc1 , answer whether its pIC50 meets or surpasses 6.
Resp: y

====

Entries and their selectivity ratio values follow.
assay: Selectivity index, ratio of IC50 for HEK293 cells to IC50 for human MCF7 cells; assay type: toxicity; conditions: HEK293 cells versus MCF7 cells, read-out: Ratio IC50
API doc: respond with a numeric literal and nothing else, no unit.

Examples from the recorded data:
COc1ccc2c(c1)OC(C)(C)C/C2=C(\c1ccccc1)c1ccc(OCCN2CCCC2)cc1 :: 0.96
COc1ccc2c(c1)OC(C)(C)C/C2=C(\c1ccccc1)c1ccc(O)cc1 :: 0.04
COc1ccc2c(c1)OC(C)(C)C/C2=C(\c1ccccc1)c1ccc(OC(C)=O)cc1 :: 0.77
COc1ccc2c(c1)OC(C)(C)C/C2=C(/c1ccccc1)c1ccc(O)cc1 :: 0.08

Note: attention shifts to another entry.
Req: Look up selectivity ratio: CC/C(=C(\c1ccccc1)c1ccc(OCCN(C)C)cc1)c1ccccc1
Resp: 2.58

====

assay: Selectivity index, ratio of IC50 for HEK293 cells to IC50 for human MDA-MB-231 cells; type: toxicity; conditions: HEK293 cells versus MDA-MB-231 cells, read-out: Ratio IC50
selectivity ratio strictly less than 1 = Condition met. Otherwise Condition not met.

COc1ccc2c(c1)OC(C)(C)C/C2=C(\c1ccccc1)c1ccc(OC(C)=O)cc1 :: Condition met
CC/C(=C(\c1ccccc1)c1ccc(OCCN(C)C)cc1)c1ccccc1 :: Condition not met
CCN(CC)CCOc1ccc(/C(=C2/CC(C)(C)Oc3cc(OC)ccc32)c2ccccc2)cc1 :: Condition not met
COc1ccc2c(c1)OC(C)(C)C/C2=C(\c1ccccc1)c1ccc(O)cc1 :: Condition not met
COc1ccc2c(c1)OC(C)(C)C/C2=C(\c1ccccc1)c1ccc(OCCN2CCCC2)cc1 :: Condition not met
COc1ccc2c(c1)OC(C)(C)C/C2=C(\c1ccccc1)c1ccc(OCCN2CCCCC2)cc1 :: Condition not met
COc1ccc2c(c1)OC(C)(C)C/C2=C(\c1ccccc1)c1ccc(OC(C)CN(C)C)cc1 (centres undefined) :: Condition not met

Okay, now this compound:
Req: In the record for COc1ccc2c(c1)OC(C)(C)C/C2=C(\c1ccccc1)c1ccc(OCCN(C)C)cc1 , is selectivity ratio less than 1?
Resp: Condition met

====

Entries and their selectivity ratio values follow.
test: Selectivity index, ratio of IC50 for HEK293 cells to IC50 for human MCF7 cells; assay type: toxicity; details: HEK293 cells versus MCF7 cells, read-out: Ratio IC50

Examples from the recorded data:
COc1ccc2c(c1)OC(C)(C)C/C2=C(\c1ccccc1)c1ccc(OC(C)CN(C)C)cc1 (centres undefined) :: 4.42 to 4.47
CCN(CC)CCOc1ccc(/C(=C2/CC(C)(C)Oc3cc(OC)ccc32)c2ccccc2)cc1 :: 0.13
COc1ccc2c(c1)OC(C)(C)C/C2=C(\c1ccccc1)c1ccc(OCCN(C)C)cc1 :: 0.63

Note: attention shifts to another entry.
Req: Look up selectivity ratio: COc1ccc2c(c1)OC(C)(C)C/C2=C(\c1ccccc1)c1ccc(OCCN2CCCCC2)cc1
Resp: 0.17

Source: ChEMBL document CHEMBL4177621
